Biological target: sodium-proton exchanger of subtype 3 (NHE3) (Homo sapiens)
Construct: expressed in transfected cells
Experiment: Recovery of intracellular pH (pHi) after acidification in LAP1 cells stably expressing NHE3 (BCECF fluorescence, FLIPR)
Type: cell-based
Conditions: LAP1 cells stably expressing NHE3; pH recovery after acidification; range 1 is % inhibition at 10 μM; read-out: Activity range (inhibitory effect on NHE3)
For each of the compounds below, state its IC50.

# IC50 of Cc1nnc(C)n1-c1ccc(O[C@H]2c3cc(Cl)cc(F)c3C[C@@H]2N2CC[C@@H](O)C2)c(Cl)c1 [Example 138] = < 1 µM

// recorded IC50 for CCOc1cccc(O[C@@H]2c3ccccc3C[C@H]2N2CCC(CN)CC2)c1 (racemic) [Example 614] : 1 to 10 µM

The recorded IC50 for O=C1COC(=O)N1c1ccc(F)c(O[C@H]2c3cc(Cl)cc(Cl)c3C[C@@H]2N2CC[C@@H](O)C2)c1 [Example 418] is 1 to 10 µM

Entry N#Cc1ccc(O[C@H]2c3ccccc3CC[C@@H]2N2CCC[C@@H](N)C2)cc1 (racemic) [Example 516] ; IC50 = < 1 µM

The reported IC50 of the compound CS(=O)(=O)c1ccc(O[C@H]2c3cc(Cl)cc(Cl)c3C[C@@H]2N2CC(O)C2)cc1 [Example 307] was 1 to 10 µM

# IC50 (compound: CCc1nc(C)cn1-c1ccc(O[C@H]2c3cc(Cl)cc(F)c3C[C@@H]2N2CC[C@@H](O)C2)cc1 [Example 719] ) is 1 to 10 µM

Item: CC(=O)Nc1cccc(O[C@@H]2c3ccccc3C[C@H]2N2C[C@H]3CNC[C@H]3C2)c1 (racemic) [Example 674] | IC50: 1 to 10 µM

----------
Biological target: sodium-proton exchanger of subtype 3 (NHE3) (Homo sapiens, UniProt P48764)
Construct: expressed in transfected cells
Sequence (P48764 26-834, species assumed): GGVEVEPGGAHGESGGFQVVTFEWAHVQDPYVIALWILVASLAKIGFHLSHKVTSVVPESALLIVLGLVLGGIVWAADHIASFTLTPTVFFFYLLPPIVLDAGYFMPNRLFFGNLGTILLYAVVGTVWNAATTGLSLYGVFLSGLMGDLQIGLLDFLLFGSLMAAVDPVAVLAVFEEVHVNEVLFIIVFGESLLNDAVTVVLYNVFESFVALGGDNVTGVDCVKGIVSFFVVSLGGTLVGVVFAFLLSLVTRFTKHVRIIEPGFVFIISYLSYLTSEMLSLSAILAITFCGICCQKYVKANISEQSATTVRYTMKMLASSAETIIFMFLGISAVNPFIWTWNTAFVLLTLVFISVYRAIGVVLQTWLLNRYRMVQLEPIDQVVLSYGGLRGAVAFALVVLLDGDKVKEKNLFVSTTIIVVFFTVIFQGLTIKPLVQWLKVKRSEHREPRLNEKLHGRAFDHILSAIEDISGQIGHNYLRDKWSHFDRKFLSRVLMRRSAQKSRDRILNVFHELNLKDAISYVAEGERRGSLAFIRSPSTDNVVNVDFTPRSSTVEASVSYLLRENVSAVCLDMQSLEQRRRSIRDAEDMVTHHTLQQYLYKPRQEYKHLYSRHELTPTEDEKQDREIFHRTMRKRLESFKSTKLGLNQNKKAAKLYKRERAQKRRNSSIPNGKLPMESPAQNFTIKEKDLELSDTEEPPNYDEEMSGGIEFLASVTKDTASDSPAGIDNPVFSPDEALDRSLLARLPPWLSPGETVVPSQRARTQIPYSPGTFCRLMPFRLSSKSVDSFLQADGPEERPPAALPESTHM
Assay: Recovery of intracellular pH (pHi) after acidification in LAP1 cells stably expressing NHE3 (BCECF fluorescence, FLIPR)
Format: cell-based
Details: LAP1 cells stably expressing NHE3; pH recovery after acidification; range 1 is % inhibition at 10 μM; read-out: Activity range (inhibitory effect on NHE3)
pIC50: −log10 of the molar value.
Experimental endpoint: pIC50

// field: pIC50; key: CS(=O)(=O)c1ccc(O[C@H]2c3cc(Cl)cc(Cl)c3C[C@@H]2N2CC[C@@H](NCCF)C2)cc1 [Example 226] ; value = > 6.00

response.value for N#Cc1ccc(O[C@@H]2c3ccccc3C[C@H]2N2C[C@H]3CNC[C@H]3C2)cc1Cl (racemic) [Example 393] (field: pIC50) = 5.00 to 6.00

pIC50 for Cc1nnc(C)n1-c1ccc(O[C@H]2c3cc(Cl)cc(Cl)c3C[C@@H]2N(C)CCO)c(F)c1 [Example 704] is > 6.00

get_value(item= NC(=O)c1cc(Cl)ccc1O[C@H]1c2ccccc2CC[C@@H]1N1CCC[C@H](N)C1 (racemic) [Example 370] , readout=pIC50) returns > 6.00

pIC50 reported for this compound CC(=O)Nc1cccc(O[C@H]2c3ccccc3C[C@@H]2N2CCC[C@@H](NCCF)C2)c1 [Example 631] : > 6.00

Input CS(=O)(=O)c1ccc(O[C@H]2c3cc(Cl)cc(F)c3C[C@@H]2N2CC[C@@H](O)C2)cc1 [Example 108] . Output pIC50: 5.00 to 6.00

Input N[C@@H]1CCCN([C@H]2Cc3c(Cl)cc(Cl)cc3[C@@H]2Oc2ccc(-n3ccnc3)cc2)C1 [Example 98] . Output pIC50: > 6.00
